- PROTOCOL_DESCRIPTION: anthelmintic activity against nematode growth – whole organism, log2 fold change (AID 1259336);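 also: growth scored by imaging after five days at 20 °C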
- DETAILS: C. elegans growth, anthelmintic screen
Active and inactive are the calls of the source. Rule as the data show it: active = log2 fold change growth below about -1.8; inactive = the rest.
Tick one outcome: 1 for active, 0 for inactive

[[record]]
molecule = "CC1=Nc2ccc(Cl)cc2[C@H](c2ccccc2)N1CCNC(=O)CN(C)C"
qualitative_label = 0

[[record]]
molecule = "CCCn1nnc(NC(=O)COc2ccc(C3CCCCC3)cc2)n1"
qualitative_label = 0


We next turn to a different molecule, shown below.
Q. # lookup: test call for `CCCc1ccc(S(=O)(=O)Nc2ccc(CN3CCN(CC4CC4)CC3)cc2)cc1`
A. 0

* * *

- PROTOCOL_DESCRIPTION: anthelmintic activity against nematode growth – whole organism, log2 fold change (AID 1259336);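 also: growth scored by imaging after five days at 20 °C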
- DETAILS: C. elegans growth, anthelmintic screen; stronger effect = lower value
OBSERVABLE: log2 fold change growth
Give bare numbers.

[[record]]
molecule = "C[C@@H](C(=O)Nc1ccc2oc(-c3ccncc3)nc2c1)c1ccccc1"
experimental_value = 0.0616

[[record]]
molecule = "CN1CCN(c2nccc3[nH]c(-c4cccc(F)c4)cc23)CC1"
experimental_value = -0.0356

[[record]]
molecule = "Nc1ncc(-c2ccc(C(F)(F)F)nc2)cc1-c1ccc(C(F)(F)F)nc1"
experimental_value = 0.0312

[[record]]
molecule = "C[C@H](c1ccc2c(c1)CCCC2)N(C)c1ncc2c(N)nc(N)nc2n1"
experimental_value = 0.0756

[[record]]
molecule = "CNC1C(OC2C(OC3C(O)C(O)C(N=C(N)N)C(O)C3N=C(N)N)OC(C)C2(O)C=O)OC(CO)C(O)C1O (stereo not given)"
experimental_value = -0.00587


Please state log2 fold change growth for every molecule in the list that follows.
1. COC(=O)c1c(NC(=O)c2c(F)c(F)c(F)c(F)c2F)sc2c1CCCCC2
2. CCc1cc(=O)n(C)c(S[C@@H](C)C(=O)Nc2ccc(F)cc2)n1
3. O=C(Nc1nc(-c2ccccn2)cs1)c1cncn1-c1ccccc1
4. CCN(CC)S(=O)(=O)c1ccc(C(=O)Nc2cc(C)nn2-c2nc(C)c(C)c(=O)[nH]2)cc1
5. CC(C)(C(=O)Nc1ccc(F)cc1)n1cc(-c2ccccc2F)cn1

A.
1. 0.243
2. -0.417
3. -0.307
4. 0.269
5. 0.0447

* * *

- PROTOCOL_DESCRIPTION: anthelmintic activity against nematode growth – whole organism, log2 fold change (AID 1259336);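 also: growth scored by imaging after five days at 20 °C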
- DETAILS: C. elegans growth, anthelmintic screen
Activity calls are given as the source filed them. Cut-off read from the data, not from the text of the source: active = log2 fold change growth below about -1.8; inactive = the rest.
Tick one outcome: y for active, n for inactive

[[record]]
mol_smiles = "Nc1nccc2ccc(-c3ccc4nccn4c3)cc12"
qualitative_label = "n"

[[record]]
mol_smiles = "CN1CCN(c2cc(-c3ccc(F)cc3)nc(-c3ccncc3)n2)CC1"
qualitative_label = "y"

[[record]]
mol_smiles = "Cc1cccc(NC(=O)c2cc(S(=O)(=O)N(C)c3ccc(F)cc3)ccc2Cl)n1"
qualitative_label = "n"


Q. # lookup: test call for `CC1(C)Cc2c(c(N3CCOCC3)nc3snc(Br)c23)CO1`
A. n

Q. What about `Cc1cc(C(=O)Nc2ccc(-c3ccccc3)cc2)no1` ?
A. y

Q. What about `O=C1N(Cc2cc3ccccc3s2)C[C@H]2CN(Cc3ccccc3)CCN12` ?
A. n

Q. What about `CN1CCC(NCc2cccc(-c3ccc(S(=O)(=O)NCc4ccccc4)cc3)c2)CC1` ?
A. n

Q. What about `COC(=O)Nc1nc2ccc(C(=O)c3ccccc3)cc2[nH]1` ?
A. y
